- TESTED_SYSTEM: Calpain-1 catalytic subunit (Homo sapiens, UniProt P07384)
- Sequence (P07384 whole entry): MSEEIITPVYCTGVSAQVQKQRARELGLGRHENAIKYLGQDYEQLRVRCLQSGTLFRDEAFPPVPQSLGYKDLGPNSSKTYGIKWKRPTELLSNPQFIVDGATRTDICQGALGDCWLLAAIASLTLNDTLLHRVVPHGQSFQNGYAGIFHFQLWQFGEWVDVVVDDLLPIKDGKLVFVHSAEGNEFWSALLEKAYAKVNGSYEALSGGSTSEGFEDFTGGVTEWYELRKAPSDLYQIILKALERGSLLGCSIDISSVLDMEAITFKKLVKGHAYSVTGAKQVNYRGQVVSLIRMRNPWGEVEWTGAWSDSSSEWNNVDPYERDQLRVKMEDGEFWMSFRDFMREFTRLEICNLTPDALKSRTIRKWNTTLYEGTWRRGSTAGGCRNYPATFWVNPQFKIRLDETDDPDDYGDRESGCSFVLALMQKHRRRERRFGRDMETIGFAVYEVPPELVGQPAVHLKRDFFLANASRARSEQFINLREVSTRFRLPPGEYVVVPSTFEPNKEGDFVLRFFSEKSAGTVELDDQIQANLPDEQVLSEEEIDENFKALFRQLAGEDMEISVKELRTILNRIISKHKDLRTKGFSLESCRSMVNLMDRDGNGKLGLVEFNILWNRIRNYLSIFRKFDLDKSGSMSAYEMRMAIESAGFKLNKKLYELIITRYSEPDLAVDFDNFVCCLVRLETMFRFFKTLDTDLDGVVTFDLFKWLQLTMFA
- EXPERIMENT: Inhibition of human erythrocytes mu-calpain using Suc-Leu-Tyr-AMC fluorogenic substrate after 30 mins by spectrofluorimetry
MEASURED_ATTRIBUTE: pIC50
In simple prose, pIC50 is minus the logarithm base ten of a concentration in moles per litre.

Record excerpt, results attached:
Tell me measured pIC50 for CCC/C(=C\c1ccc(O)c(O)c1)C(=O)N[C@@H](Cc1ccccc1)C(=O)C(=O)NCc1ccccc1 (stereo in doubt) please.
6.44

Tell me measured pIC50 for Cc1c(C(=O)N[C@@H](Cc2ccccc2)C(=O)C(N)=O)oc2ccccc2c1=O please.
7.15

Tell me measured pIC50 for CCCC/C(=C\c1ccc(O)c(O)c1)C(=O)N[C@@H](Cc1ccccc1)C(=O)C(=O)NCc1ccccc1 (stereo in doubt) please.
6.17

Tell me measured pIC50 for CCCC/C(=C\c1ccc(O)c(O)c1)C(=O)N[C@@H](Cc1ccccc1)C(=O)C(=O)NCCc1ccc(OC)cc1 (stereo in doubt) please.
6.30

Tell me measured pIC50 for CCC/C(=C\c1ccc(O)c(O)c1)C(=O)N[C@@H](Cc1ccccc1)C(=O)C(=O)NCCc1ccc(OC)cc1 (stereo in doubt) please.
6.89

Tell me measured pIC50 for CCCC/C(=C\c1ccc(O)c(OC)c1)C(=O)N[C@@H](Cc1ccccc1)C(=O)C(=O)NCCc1ccc(OC)cc1 (stereo in doubt) please.
6.20

Tell me measured pIC50 for CC/C(=C\c1ccc(O)c(O)c1)C(=O)N[C@@H](Cc1ccccc1)C(=O)C(=O)NCCc1ccc(OC)cc1 (stereo in doubt) please.
6.34

Tell me measured pIC50 for O=C(/C=C/c1ccc(O)c(O)c1)N[C@@H](Cc1ccccc1)C(=O)C(=O)NCc1ccccc1 please.
5.22

Tell me measured pIC50 for CC(C)C/C(=C\c1ccc(O)c(O)c1)C(=O)N[C@@H](Cc1ccccc1)C(=O)C(=O)NCc1ccccc1 (stereo in doubt) please.
6.49

Tell me measured pIC50 for CC/C(=C\c1ccc(O)c(O)c1)C(=O)N[C@@H](Cc1ccccc1)C(=O)C(=O)NCc1ccccc1 (stereo in doubt) please.
6.21

Now examine the next entry.
Tell me measured pIC50 for CCCC/C(=C\c1ccc(OC)c(OC)c1)C(=O)N[C@@H](Cc1ccccc1)C(=O)C(=O)NCCc1ccc(OC)cc1 (stereo in doubt) please.
5.86

Entry source: ChEMBL document CHEMBL1770073
